// provenance: patent US12686667B2

- Protocol Summary: LD50 toxicity study on Balb C mice
- Assay type: in vivo
- Run Parameters: mouse, in vivo, 5250 mg/kg, ip
Property: LD50 (mg/kg)
Give bare numbers, in mg/kg.

I have this molecule here, COc1ccc(C2N[C@@H](C(=O)O)C(C)(C)S2)cc1 (stereo partly shown) , and I need its recorded LD50. 5250
